These measurements were taken from patent US20240174674A1.

Experimental system: RET G810R (Homo sapiens (Human), UniProt P07949, G810R)
Sequence (P07949 29-1114 G810R): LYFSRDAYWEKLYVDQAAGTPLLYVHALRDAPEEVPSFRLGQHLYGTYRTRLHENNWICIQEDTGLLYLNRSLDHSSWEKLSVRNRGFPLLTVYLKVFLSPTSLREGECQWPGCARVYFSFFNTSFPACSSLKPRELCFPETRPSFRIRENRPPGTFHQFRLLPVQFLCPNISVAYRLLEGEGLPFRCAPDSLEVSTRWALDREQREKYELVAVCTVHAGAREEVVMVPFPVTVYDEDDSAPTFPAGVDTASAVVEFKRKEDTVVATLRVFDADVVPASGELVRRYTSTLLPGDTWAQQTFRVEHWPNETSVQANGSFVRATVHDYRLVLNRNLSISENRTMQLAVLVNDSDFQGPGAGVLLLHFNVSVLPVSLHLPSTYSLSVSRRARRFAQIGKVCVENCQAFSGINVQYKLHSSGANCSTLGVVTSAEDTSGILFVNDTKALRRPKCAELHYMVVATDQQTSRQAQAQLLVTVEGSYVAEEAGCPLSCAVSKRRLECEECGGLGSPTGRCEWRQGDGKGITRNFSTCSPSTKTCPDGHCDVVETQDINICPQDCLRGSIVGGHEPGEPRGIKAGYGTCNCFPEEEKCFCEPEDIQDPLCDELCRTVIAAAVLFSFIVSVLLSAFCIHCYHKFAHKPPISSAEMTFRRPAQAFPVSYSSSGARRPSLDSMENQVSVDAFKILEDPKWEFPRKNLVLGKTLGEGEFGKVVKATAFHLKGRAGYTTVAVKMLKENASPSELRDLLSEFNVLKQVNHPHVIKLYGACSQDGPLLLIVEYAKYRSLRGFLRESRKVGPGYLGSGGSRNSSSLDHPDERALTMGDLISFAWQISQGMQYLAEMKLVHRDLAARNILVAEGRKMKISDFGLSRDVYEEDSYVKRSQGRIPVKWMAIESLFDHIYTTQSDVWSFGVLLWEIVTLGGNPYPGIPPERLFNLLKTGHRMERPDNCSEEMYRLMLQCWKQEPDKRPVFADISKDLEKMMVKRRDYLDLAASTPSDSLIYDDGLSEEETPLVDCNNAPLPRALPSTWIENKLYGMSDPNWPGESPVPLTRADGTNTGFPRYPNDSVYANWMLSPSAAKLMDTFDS
Experimental details: HTRF KinEASE-TK kinase activity test, RET G810R
Experimental context: read-out: RET G810R IC50; HTRF kinase assay

Smi | IC50
CCOc1cc(-c2ccc(N3CCC4(CCCN4Cc4ccc(OC)nc4)CC3)nc2)c2c3cn[nH]c3nn2c1 | 49 nM
CCOc1cc(-c2ccc(N3CC[C@H](NC(=O)c4ccccc4C#N)[C@H](O)C3)nc2)c2c3cn[nH]c3nn2c1 | 2.1 nM
CCOc1cc(-c2ccc(N3C[C@@H]4[C@@H](CNC(=O)c5c(F)cccc5Cl)[C@@H]4C3)nc2)c2c3cn[nH]c3nn2c1 | 8 nM
CCOc1cc(-c2ccc(N3CCC(CN4CCN(CC)CC4)(NC(=O)c4cc(F)ccc4F)CC3)nc2)c2c3cn[nH]c3nn2c1 | 2.1 nM
CCOc1cc(-c2ccc(N3CCC4(CCCN(C(=O)c5c(F)cccc5Cl)C4)CC3)nc2)c2c3cn[nH]c3nn2c1 | 47.3 nM
CCOc1cc(-c2ccc(N3CCC(CN(C)C)(NC(=O)c4ncccc4Cl)CC3)nc2)c2c3cn[nH]c3nn2c1 | 1.5 nM
CCOc1cc(-c2ccc(N3CCC(CN(C)C)(C(=O)NCC(C)C)CC3)nc2)c2c3cn[nH]c3nn2c1 | 5.1 nM

###

Experimental system: RET G810R (Homo sapiens (Human), UniProt P07949, G810R)
Experimental details: HTRF KinEASE-TK kinase activity test, RET G810R
Experimental context: read-out: RET G810R IC50; HTRF kinase assay
pIC50: −log10 of the molar value.

Compound | Experimental system | pIC50
CCOc1cc(-c2ccc(N3CCCC4(CCN(Cc5ccc(OC)nc5)CC4)C3)nc2)c2c3cn[nH]c3nn2c1 [Compound 219] | RET G810R (Homo sapiens (Human), UniProt P07949, G810R) | 7.18
CCOc1cc(-c2ccc(N3CCC(CN4CCC4)(C(=O)NCC(C)C)CC3)nc2)c2c3cn[nH]c3nn2c1 [Compound 36] | RET G810R (Homo sapiens (Human), UniProt P07949, G810R) | 8.24
CCOc1cc(-c2ccc(N3CCC(C)(NC(=O)c4ncccc4Cl)CC3)nc2)c2c3cn[nH]c3nn2c1 [Compound 3] | RET G810R (Homo sapiens (Human), UniProt P07949, G810R) | 8.54
CCOc1cc(-c2ccc(N3C[C@H]4C[C@H](NC(=O)c5c(F)cccc5Cl)C[C@H]4C3)nc2)c2c3cn[nH]c3nn2c1 [Compound 174] | RET G810R (Homo sapiens (Human), UniProt P07949, G810R) | 8.46
COc1ccc(CN2C3CC2CN(c2ccc(-c4cc(P(C)(C)=O)cn5nc6[nH]ncc6c45)cn2)C3)cn1 [Compound 237] | RET G810R (Homo sapiens (Human), UniProt P07949, G810R) | 6.95
CCOc1cc(-c2ccc(N3CCC(S(=O)(=O)NC(C)C)CC3)nc2)c2c3cn[nH]c3nn2c1 [Compound 101] | RET G810R (Homo sapiens (Human), UniProt P07949, G810R) | 8.18
O=C(N[C@H]1CCN(c2ccc(-c3cc(OCC(F)F)cn4nc5[nH]ncc5c34)cn2)C[C@@H]1O)c1c(F)cccc1F [Compound 296] | RET G810R (Homo sapiens (Human), UniProt P07949, G810R) | 8.68
CCOc1cc(-c2cnc(N3CCC(C)(NC(=O)c4cc(F)ccc4Cl)CC3)cn2)c2c3cn[nH]c3nn2c1 [Compound 58] | RET G810R (Homo sapiens (Human), UniProt P07949, G810R) | 8.25
CCOc1cc(-c2ccc(N3CC[C@H](NS(=O)(=O)c4c(F)cccc4F)[C@H](O)C3)nc2)c2c3cn[nH]c3nn2c1 [Compound 269] | RET G810R (Homo sapiens (Human), UniProt P07949, G810R) | 8.21
CCOc1cc(-c2ccc(N3CCC(C)(NC(=O)c4ncc(F)cc4Cl)CC3)nc2)c2c3cn[nH]c3nn2c1 [Compound 4] | RET G810R (Homo sapiens (Human), UniProt P07949, G810R) | 8.64
CCOc1cc(-c2ccc(N3CC[C@H](NC(=O)c4c(F)cccc4F)[C@H](O)C3)nc2)c2c3cn[nH]c3nn2c1 [Compound 233] | RET G810R (Homo sapiens (Human), UniProt P07949, G810R) | 9.02
CCOc1cc(-c2ccc(N3CCC(C)(S(=O)(=O)CC(C)C)CC3)nc2)c2c3cn[nH]c3nn2c1 [Compound 33] | RET G810R (Homo sapiens (Human), UniProt P07949, G810R) | 8.60
CCOc1cc(-c2ccc(N3CC4CC(C3)N4Cc3ccc(OC)nc3)nc2)c2c3c(C#N)n[nH]c3nn2c1 [Compound 248] | RET G810R (Homo sapiens (Human), UniProt P07949, G810R) | 7.81
CCOc1cc(-c2cnc(N3CC[C@H](NC(=O)c4ncccc4Cl)[C@@H](O)C3)cn2)c2c3cn[nH]c3nn2c1 [Compound 50] | RET G810R (Homo sapiens (Human), UniProt P07949, G810R) | 7.75
CCOc1cc(-c2ccc(N3CC[C@H](NC(=O)c4ncccc4F)[C@H](O)C3)nc2)c2c3cn[nH]c3nn2c1 [Compound 286] | RET G810R (Homo sapiens (Human), UniProt P07949, G810R) | 7.99
COC(=O)COc1cc(-c2ccc(N3CC4CC(C3)N4Cc3ccc(OC)nc3)nc2)c2c3cn[nH]c3nn2c1 [Compound 228] | RET G810R (Homo sapiens (Human), UniProt P07949, G810R) | 8.24
O=C(N[C@H]1CCN(c2ccc(-c3cc(OCCF)cn4nc5[nH]ncc5c34)cn2)C[C@H]1O)c1c(F)cccc1F [Compound 267] | RET G810R (Homo sapiens (Human), UniProt P07949, G810R) | 8.52
